FYI, the data here is from the supplement of paper PMC10899765.

Tested on: MCF10A
Assay: 5+ nucleoli phenotype percent effect (relative to siNT 0% and siKIF11 100%); higher = more cells with five or more nucleoli
Details: 20 nM; 72 h
measured.quantity: 5+ nucleoli phenotype percent effect (%)
Number only, in %; omit the unit.

// solved cases for 5+ nucleoli phenotype percent effect follow
AAUCAGUGAAUGCCUUGAACCU [hsa-miR-5094]: -13.9
UGGCCAAAAAGCAGGCAGAGA [hsa-miR-3926]: 0.491

Here is the next item to consider.
Exercise: For the sequence shown here, CGGCUCUGGGUCUGUGGGGA [hsa-miR-760] , give the reported 5+ nucleoli phenotype percent effect.
Solution: -2.61
